# Tested on: UACC-62
# Experiment: NCI tumour cell line growth inhibition, 48 h
The source made the active and inactive calls. Rule as the data show it: active = GI50 up to about 1.1 µM and inactive = higher.

{"Molecule": "O=C1C2c3[nH]c4ccccc4c3C3CCCCCC3C2C(=O)N1c1ccccc1 (stereo not given)", "GI50": "> 63.7 µM (inactive)"}
{"Molecule": "Clc1ccc2nc(-c3ccccc3)nc(Cl)c2c1", "GI50": "49.8 µM (inactive)"}
{"Molecule": "COC(=O)c1oc([N+](=O)[O-])c(Cl)c1Cl", "GI50": "8.47 µM (inactive)"}
{"Molecule": "C(=C(c1ccc(OC2CCCCO2)cc1)c1ccc(OC2CCCCO2)cc1)c1ccccc1 (stereo not given)", "GI50": "0.547 µM (active)"}
{"Molecule": "Cc1cc(/N=N/c2c(O)ccc3ccccc23)ccc1/N=N/c1cccc([N+](C)(C)C)c1", "GI50": "14.7 µM (inactive)"}
{"Molecule": "CCCCNC(=S)Nn1c(-c2ccccc2)nc2ccccc2c1=O", "GI50": "> 100 µM (inactive)"}
{"Molecule": "N=c1oc2ccc([N+](=O)[O-])cc2cc1C(=O)Nc1ccccn1", "GI50": "34.2 µM (inactive)"}
{"Molecule": "O=[N+]([O-])C1(C2([N+](=O)[O-])CCCC2)CCCC1", "GI50": "> 100 µM (inactive)"}
{"Molecule": "CN(C)c1nc(N(C)C)n2nc(-c3ccccc3[N+](=O)[O-])nc2n1", "GI50": "> 100 µM (inactive)"}
{"Molecule": "COC(C/C(=C/CO[Si](C(C)C)(C(C)C)C(C)C)C(=O)N(C(=O)OC(C)(C)C)c1ccccc1I)OC", "GI50": "> 100 µM (inactive)"}
